Biological target: KHK-C expressed in NRK-52E cells (Homo sapiens (Human), UniProt P50053)
Sequence (P50053 whole entry): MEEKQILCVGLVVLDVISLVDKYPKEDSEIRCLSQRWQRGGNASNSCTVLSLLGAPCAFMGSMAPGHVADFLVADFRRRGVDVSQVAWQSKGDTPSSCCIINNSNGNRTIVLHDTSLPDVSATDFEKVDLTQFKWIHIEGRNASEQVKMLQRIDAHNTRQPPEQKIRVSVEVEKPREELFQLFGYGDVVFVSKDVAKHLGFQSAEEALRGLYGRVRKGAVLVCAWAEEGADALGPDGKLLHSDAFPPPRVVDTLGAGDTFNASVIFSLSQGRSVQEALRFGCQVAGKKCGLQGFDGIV
Test: KHK-C Cell-based Assay (EC50), NRK CTG, fructose-mediated ATP-depletion
pEC50: −log10 of the molar value.
measured.metric: pEC50

a: O=C1N[C@@]2(CO1)COc1cc(-c3nc(N4CCC4C(F)F)nc4c3CCC4(F)F)ccc12 (stereo partly shown)
b: C[C@H]1[C@H](O)CN1c1nc(-c2ccc3c(c2)OCCC3NS(C)(=O)=O)c2c(n1)C(F)(F)CC2 (stereo partly shown)
c: COc1cc(-c2nc(N3CC[C@@H]3C)nc3c2CCC3)ccc1C(N)=O
d: C[C@H]1CCN1c1nc2c(c(-c3ccc4cnc(O)cc4c3)n1)CCC2
e: C[C@H]1CCN1c1nc2c(c(-c3cccc(CN)c3)n1)CCC2
Lookup: I would appreciate it if you could sort these 5 molecules by pEC50, starting from the smallest number. API: response body holds the labels in the requested order.
Found: e, d, b, c, a
(e: 6.47, d: 7.12, b: 7.49, c: 7.80, a: 8.06)

---

Target: KHK-C expressed in NRK-52E cells (Homo sapiens (Human), UniProt P50053)
Experiment: KHK-C Cell-based Assay (EC50), NRK CTG, fructose-mediated ATP-depletion
measured.metric: EC50 (nM)

a: C[C@H]1CCN1c1nc2c(c(-c3ccc(CN4CC(O)C4)cc3)n1)CCC2
b: C[C@H]1CCN1c1nc2c(c(-c3ccc4c(c3)CNC4=O)n1)CCC2
Lookup: Between the entries labeled a and b , whose measured EC50 is lower? Indicate your choice by writing its label.
Found: a

P: C[C@H]1[C@H](O)CN1c1nc(-c2ccc3c(c2)COC[C@]32COC(=O)N2)c2c(n1)C(F)(F)CC2 (single isomer, unassigned)
Q: C[C@H]1[C@H](O)CN1c1nc(-c2ccc3c(c2)OCC32NC(=O)N(CC(F)(F)F)C2=O)c2c(n1)C(F)(F)CC2 (stereo partly shown)
Lookup: Response body: label of entry with the larger EC50; valid values P , Q . Indicate your choice by writing its label.
Found: P

I: C[C@H]1[C@H](F)CN1c1nc2c(c(-c3cccc(CN)c3)n1)CCC2
II: C[C@H]1CCN1c1nc2c(c(-c3cccc(C4CCS(=O)(=O)N4)c3)n1)CCC2 (stereo partly shown)
Lookup: Response body: label of entry with the larger EC50; valid values I , II . Indicate your choice by writing its label.
Found: I

A: C[C@H]1CCN1c1nc2c(c(-c3cccc(CNC(=O)CCO)c3)n1)CCC2
B: CCN1C(=O)N[C@]2(COc3cc(-c4nc(N5C[C@@H](O)[C@@H]5C)nc5c4CCC5(F)F)ccc32)C1=O (single isomer, unassigned)
Lookup: Between the entries labeled A and B , whose measured EC50 is lower? Indicate your choice by writing its label.
Found: B

---

Biological target: human KHK-C (Homo sapiens (Human), UniProt P50053)
Sequence (P50053 whole entry): as above
Experiment: KHK Biochemical Assay (IC50), ADP-Glo, KHK-C
Conditions: ADP-Glo; average of at least two separate assays
pIC50: −log10 of the molar value.
measured.metric: pIC50

Previously resolved entries follow.
- compound: "C[C@H]1CCN1c1nc2c(c(-c3ccc4c(c3)CCN(C)C4=O)n1)CCC2 [Example 222]"
  study.target: "human KHK-C (Homo sapiens (Human), UniProt P50053)"
  measured.metric: "pIC50"
  numeric.value: 7.10
- compound: "C[C@H]1CCN1c1nc2c(c(-c3ccc4c(c3)CC(CC(N)=O)C4)n1)CCC2 (stereo partly drawn) [Example 135]"
  study.target: "human KHK-C (Homo sapiens (Human), UniProt P50053)"
  measured.metric: "pIC50"
  numeric.value: 6.95
- compound: "C[C@H]1[C@H](O)CN1c1nc2c(c(-c3ccc(S(N)(=O)=O)cc3)n1)CCC2 [Example 199]"
  study.target: "human KHK-C (Homo sapiens (Human), UniProt P50053)"
  measured.metric: "pIC50"
  numeric.value: 6.83

1: C[C@H]1[C@H](O)CN1c1nc2c(c(-c3cccc([C@H]4C[C@@H]4C(=O)O)c3)n1)CCC2 (single isomer, unassigned) [Example 113]
2: C[C@H]1CCN1c1nc2c(c(-c3cc4ccccc4[nH]3)n1)CCC2 [Example 151]
Lookup: Response body: label of entry with the larger pIC50; valid values 1 , 2 . Indicate your choice by writing its label.
Found: 1
(1: 7.88, 2: 5.41)

---

Molecular target: human KHK-C (Homo sapiens (Human), UniProt P50053)
Assay: KHK Biochemical Assay (IC50), ADP-Glo, KHK-C
Conditions: ADP-Glo; average of at least two separate assays
measured.metric: IC50 (nM)

- molecule: "COc1ccc(-c2nc(N3CC[C@@H]3C)nc3c2CCC3)cc1S(=N)(=O)CCN(C)C(C)=O (stereo partly drawn)"
  IC50 / nM: 70.5

a: C[C@H]1CCN1c1nc2c(c(-c3ccc(N4CCOCC4)nc3)n1)CCC2
b: C[C@H]1CCN1c1nc2c(c(-c3cccc(O)c3)n1)CCC2
Lookup: Response body: label of entry with the larger IC50; valid values a , b . Indicate your choice by writing its label.
Found: b
(b: 153 nM, a: 98 nM)

---

Target: human KHK-C (Homo sapiens (Human))
Assay: KHK Biochemical Assay (IC50), ADP-Glo, KHK-C
Conditions: ADP-Glo; average of at least two separate assays
pIC50: −log10 of the molar value.
measured.metric: pIC50

Previously resolved entries follow.
- molecule: "Cc1nnc(-c2ccc(-c3nc(N4CC[C@@H]4C)nc4c3CCC4)cc2)o1"
  numeric.value: 6.79
- molecule: "C[C@H]1CCN1c1nc2c(c(-c3ccc(S(=N)(N)=O)cc3)n1)CCC2 (stereo partly shown)"
  numeric.value: 7.14
- molecule: "C[C@H]1[C@H](O)CN1c1nc(-c2ccc3c(c2)S(=N)(=O)CCO3)c2c(n1)C(F)(F)CC2 (stereo partly shown)"
  numeric.value: 8.60
- molecule: "COc1cc(-c2nc(N3CC[C@@H]3C)nc3c2CCC3)ccc1CS(N)(=O)=O"
  numeric.value: 7.12
- molecule: "C[C@H]1CCN1c1nc2c(c(-c3ccc(C(=O)NCCO)cc3)n1)CCC2"
  numeric.value: 7.25
- molecule: "C[C@H]1[C@H](O)CN1c1nc(-c2ccc3c(c2)OCCNC3=O)c2c(n1)C(F)(F)CC2"
  numeric.value: 8.30

A: C[C@H]1[C@H](O)CN1c1nc(-c2ccc(C3(N)CCOCC3)cc2)c2c(n1)C(F)(F)CC2
B: C[C@H]1CCN1c1nc2c(c(-c3ccc(C4(N)CC4)cc3)n1)CCC2
Lookup: Response body: label of entry with the larger pIC50; valid values A , B . Indicate your choice by writing its label.
Found: B
(B: 8.85, A: 8.39)

a: C[C@H]1C[C@H](C)N1c1nc2c(c(-c3cccc(S(N)(=O)=O)c3)n1)CCC2
b: C[C@H]1CCN1c1nc2c(c(-c3cccc(S(=N)(=O)c4ccccc4)c3)n1)CCC2 (stereo partly shown)
c: C[C@H]1CCN1c1nc2c(c(-c3ccc(C4CNC4)cc3)n1)CCC2
d: C[C@H]1CCN1c1nc2c(c(-c3ccc4c(c3)CCNC4C(F)(F)F)n1)CCC2 (stereo partly shown)
Lookup: Sequence the entries by pIC50, beginning with the highest number. API: response body holds the labels in the requested order.
Found: c, a, b, d

1: C[C@H]1CCN1c1nc2c(c(-c3ccc(-c4ccn[nH]4)cc3)n1)CCC2
2: C[C@H]1CCN1c1nc2c(c(-c3ccccc3CCC(=O)O)n1)CCC2
3: CC(=O)N1C[C@H](C(=O)O)[C@@H](c2cccc(-c3nc(N4CC[C@@H]4C)nc4c3CCC4)c2)C1 (mixture of isomers)
4: C[C@H]1COc2cc(-c3nc(N4C[C@@H](O)[C@@H]4C)nc4c3CCC4(F)F)ccc2C(=O)N1
Lookup: Order by pIC50, ascending. API: response body holds the labels in the requested order.
Found: 2, 1, 3, 4

---

Target: human KHK-C (Homo sapiens (Human), UniProt P50053)
Test: KHK Biochemical Assay (IC50), ADP-Glo, KHK-C
Settings: ADP-Glo; average of at least two separate assays
measured.metric: IC50 (nM)

Previously resolved entries follow.
- compound: "C[C@H]1[C@H](O)CN1c1nc(-c2ccc3c(c2)CC(C)(C)C3NS(C)(=O)=O)c2c(n1)C(F)(F)CC2 (stereo partly drawn)"
  study.target: "human KHK-C (Homo sapiens (Human), UniProt P50053)"
  measured.metric: "IC50"
  numeric.value: 23.4
- compound: "C[C@H]1CCN1c1nc2c(c(-c3cccc(C(=O)N[C@H]4CC[C@H]4O)c3)n1)CCC2 (racemic)"
  study.target: "human KHK-C (Homo sapiens (Human), UniProt P50053)"
  measured.metric: "IC50"
  numeric.value: 119
- compound: "C[C@H]1CCN1c1nc2c(c(-c3cccc(CNC(=O)C(C)(C)O)c3)n1)CCC2"
  study.target: "human KHK-C (Homo sapiens (Human), UniProt P50053)"
  measured.metric: "IC50"
  numeric.value: 143
- compound: "CC1Cc2nc(N3CC[C@@H]3C)nc(-c3ccccc3)c2C1 (stereo partly drawn)"
  study.target: "human KHK-C (Homo sapiens (Human), UniProt P50053)"
  measured.metric: "IC50"
  numeric.value: 5100
- compound: "C[C@@H]1N(c2nc3c(c(-c4ccc(C(N)=O)cc4)n2)CCC3)C[C@@]1(C)O"
  study.target: "human KHK-C (Homo sapiens (Human), UniProt P50053)"
  measured.metric: "IC50"
  numeric.value: 290

a: C[C@H]1[C@H](F)CN1c1nc2c(c(-c3cccc(C4CC4C(=O)O)c3)n1)CCC2 (stereo partly drawn)
b: C[C@H]1CCN1c1nc2c(c(-c3ccc4nc(N)ccc4c3)n1)CCC2
Lookup: Between the entries labeled a and b , whose measured IC50 is lower? Indicate your choice by writing its label.
Found: a

The origin of these recorded values is patent US12410160B2.
